assay: yeast display, Sf9 membrane polyspecificity reagent, FACS + sequencing; frameworks hold sequencing errors
experimental-endpoint: polyreactivity (PSR sort gate)

>>> value("QVQLVESGGGLVQAGGSLRLSCAASGFIFFTYAMGWYRQAPGKERELVAAISSRGGSTYYADSVKGRFTISRDNAKNTVYLQMNSLKPEDTAVYYCADRTRRRRGEYDYWGQGTQVTVSS")
"high polyreactivity"
>>> value("QVQLLESGGGLVQAGGSLRLSCAASGRTFTTYTMGWYRQAPGKERELVAAIRSGGRTYYADSVKGRFTISRDNAKNTVYLQMNSLKPEDTAVYYCNARDCVRNVYAYAGRQYDYWGQGTQVTVSS")
"low polyreactivity"
>>> value("QVQLVESGGGLVQAGGSLRLSCAASGSIFRGNALGWYRQAPGKERELVATITNGGSTNYADSVKGRFTISRDNAKNTVYLQMNSLKPEDTAVYSCNADHSYHIASTRHVDYWGQGNQVTVSS")
"low polyreactivity"
>>> value("QVQLVESGGGLVQAGGSLRLSCAASGSIFGVYDMGWYRQAPGKERELVAVINSNGGSTYYADSVKGRFTISRDNAKNTVYLQMNSLKPEDTAVYYCAAERATVKFGYWGQGTQVTVSS")
"low polyreactivity"

// moving on: another record for polyreactivity (PSR sort gate)
Entry under test: `QVQLVESGGGLVQAGGSLRLSCAASGSIFGQYAMGWYRQAPGKEREYVAAISWRGTSTYYADSVKGRFTISRDNAKNTVYLQMNSLKPEDTAVYYCAGRYVKPSRYKYNYWGQGTQVTVSS` . Its polyreactivity (PSR sort gate) was high polyreactivity

====

assay: yeast display, Sf9 membrane polyspecificity reagent, FACS + sequencing; frameworks hold sequencing errors
experimental-endpoint: polyreactivity (PSR sort gate)

Here is how some sequences turned out for polyreactivity (PSR sort gate).
>>> value("QVQLVESGGGLVQAGGSLRLSCAASGFIFYEYAMGWYRQAPGKERELVAAISSGGDTNYADSVKGRFTISRDNANNTVYLQMNSLKPEDTAVYYCAKDYSDPGWAEYDYWGQGTQVTVSS")
"low polyreactivity"
>>> value("PVQLVESGGGLVQAGGSLRLSCAASGSIFCYYTMGWYRQAPGKERELVASIDYSGVSTYYADSVKGRFTISRDNAKNTVYLQMNSLKPEDTAVYDCNAVYYSWDGSTWEYGYWGQGTQVTVSS")
"low polyreactivity"
>>> value("QVQLVESGGGLVQAGGSLRLSCAASGSTFYYNAMGWYRQAPGKERELVAAISKRGGTTSYADSVKGRFTISRDNAKNTVYLQMNSLKPEDTADYYCADQTYLRQYYRYYWGQGTQVTVSS")
"high polyreactivity"
>>> value("QVQLVESGGGLVQAGGSLRLSCAASGFIFGRYAMGWYRQAPGKERELVAAITASGGRTYYADSVKGRFTISRDNAKNTVYLQMNSLKPEDTAVYYCNTPSLWCGEDYWGQGTQVTVSS")
"high polyreactivity"
>>> value("QVQLVESGGGLVQAGGSLRLSCAASGRTSRVYAMGWYRQAPGKERELVAAITWRGGNTYYADSVKGRFTISRDNAKNTVYLQMNSLKPEDTAVYYCAADKYTHKPHGDYWGQGTQVTVSS")
"high polyreactivity"

For reference, reported polyreactivity (PSR sort gate) for `QVQLVESGGGLVQAGGSLRLSCAASGFIFDNNAMGWYRQAPGKEREFVAAISGSGGSTYYADSVKGRFTISRDNAKNTVYLQMNSLKPEDTAVYYCAAPIPDYTYIYPAYDDYWGQGTQVTVSS` stands at low polyreactivity

// `QVQLVESGGGLVQAGGSLRLSCAASGSIFGFYGMGWYRQAPGKERELVAAISSRGGSTYYADSVKGRFTISRDNAKNTVYLQMNSLKPEDTAVYYCATERERTMGYWGQGTQVTVSW` : polyreactivity (PSR sort gate) value = high polyreactivity

Lab book: polyreactivity (PSR sort gate) of `QVQLVESGGGLVQAGGSLRLSCAASGLTFHYYGMGWYRQAPGKERELVAAISSGGSTYYADSVKGRFTISRDNAKNTVYLQMNSLKPEDTAVYYCAASLAYWYRGHYDYWGQGTQVTVSS` noted as low polyreactivity

Per the record, `QVQLVESGGGLVQAGGSLRLSCADSGRTFYYYAMGWYRQAPGKERELVASITYYADSVKGRFTISRDNAKNTVYLQMNSLKPVDTAVYYCAKDLYSNDLYRRYDYWGQGTQVTVSS` has polyreactivity (PSR sort gate) of low polyreactivity

So, `QVQLVESGGGLVQAGGSLRLSCAASGRIFGKNDMGWYRQAPGKETEFVATIDWSGGSTYYADSVKGRFTISRDNAKNTVYLQMNSLKPEDTAVYYCAASGWNRYLFDYWGQGTQVTVSS` ? Its polyreactivity (PSR sort gate) was low polyreactivity

get_value(item= `QVQRVESGGGLVQAGGRLRLTCAASARIIRWYAMGWNRQAPGKERELVAAISGSGGSTYYADSVKGRFTISRDNAKNTVYLQMNSLKPEDTAVYYCAKDRDPVRAHDCWGQGTQVTVSS` , readout=polyreactivity (PSR sort gate)) returns high polyreactivity

The sequence listed as `QVQLVESGRGLVQARGSLRLSCAASGFIFYRYAMGWYRQAPGKEREFVAANTSTGTTYYADSVKGRFTISRDNAKNTVYLQMNSLKPEDTAVYYCNAGFRYKYQSSRVDYWGQGTQVTVSS` has a reported polyreactivity (PSR sort gate) of high polyreactivity

# polyreactivity (PSR sort gate) (sequence: `QVQLVESGGGLVQAGGSLRLSCAASGSTFYAYAMGWYRQAPGKEWELVAAITYSGGTPYYADSVKGRFTISRDNAKNTVYLQMNSLKPEDTAVYYCAARYRGLTGHIDGYWGQGTQVTVSS` ) is low polyreactivity

Looking up `QVQLVESGGGLVQAGGSLRLSCAASGRTLKTYVMGWYRQAPGKERELVAAITSGGRTYYADSVKGRFTISRDNAKNTVYVQMNSLKPEDTAVYYCNAQLYWSRSWYLFDNTSFDYWGQGTQVTVSS` , I see its polyreactivity (PSR sort gate) listed as low polyreactivity

Lab note: `QVQLVESGGGLVQAGGSLRLICAASGRTFQYNAMGWYRQAPGKERELVAAISARAGSTYYADSVKGRFTISRDNAKNTVYLQMNRLKPEDTAVYYCAARAWTRSVPYGFYYWGQGTQVTVSS` gave polyreactivity (PSR sort gate) of high polyreactivity

// polyreactivity (PSR sort gate) lookup, sequence = `QVQLVESSGGLVQAGGSLSLICAASVLIFNFYSMGWYRQAPGKERELVDAISWNAGSTYYADSVKGRFTISRDNAKNTVYLQMNSLKPEDTAVYYCAVLPGRYDKTASHYDYWGQGTQVTVSS` , result: low polyreactivity

// field: polyreactivity (PSR sort gate); key: `QVQIVESGGGLVQAGGSLRLSCAASGSIFGYYVMGWNRQAPGKERELVAAISSGGGNTYYADSVKGRFTISRDNAKNTVYLQMISLKPEDTAVYYCAALRSWRKTGGAQRYWYDYWGHGTQVTVSS` ; value = high polyreactivity

Value source: the nanobody polyreactivity screen of Harvey et al. (2022)
